Field: TGI. Provide a value for each of the compounds that follow.
Tested on: K-562 leukemia
assay-notes: NCI tumour cell line growth inhibition, 48 h

Worked examples follow.
compound=CC1(C)N=C(/C=N/O)C(C)(C)N1O metric_name=TGI result="> 100 µM"
compound=COc1cc([C@@H]2c3cc4c(cc3[C@H](OC(C)=O)[C@H]3COC(=O)[C@H]23)OCO4)cc(OC)c1OC metric_name=TGI result="> 100 µM"
compound="CC(C)(C)OC(=O)NC(Cc1ccc(OCc2ccccc2)cn1)C(=O)N1CCSCC1 (stereo not drawn)" metric_name=TGI result="> 100 µM"

The following compounds each have a reported value; give each one's TGI.
1. O=C1C=C(N2CC2)C(=O)C=C1N1CC1
2. CC1=C2C(=O)C(C)(C)C=C2C(=O)[C@](C)(O)C12CC2

2.94 µM
> 1 µM

---

Field: TGI. Provide a value for each of the compounds that follow.
Test system: SW-620 colon
assay-notes: NCI tumour cell line growth inhibition, 48 h
One number for each entry, in µM.

compound="C/C=C1\\C(=O)O[C@@H]2C1C[C@@H]1O[C@H]2[C@H](C)CCC/C(C)=C/CC[C@@]1(C)O (stereo not given in full)" metric_name=TGI quantitative_readout=15

// next entry
Request - read-out TGI | tested on SW-620 colon | compound `O=C1/C(=C/c2ccccc2)CN(CCC(=O)N2C/C(=C\c3ccccc3)C(=O)/C(=C/c3ccccc3)C2)C/C1=C\c1ccccc1` 49.8

---

System: NCI-H460 lung
assay-notes: NCI tumour cell line growth inhibition, 48 h
Field: TGI. Provide a value for each of the compounds that follow.

The following compounds each have a reported value; give each one's TGI.
1. O=C1/C=C/[C@@H](O)[C@@H]2C[C@@H](O)C[C@H]2/C=C/CCC[C@H](CO)O1
2. COc1cc(C)[nH]c(=O)c1CN1CCc2c(Cl)cc([C@H](OC)C3COC3)c(Cl)c2C1=O
3. CNC(=O)c1cncc(/C=C/c2c(C)cccc2C)c1
4. CCOC(=O)COc1c(OC)cc(C2C3=C(COC3=O)Oc3cc4c(cc32)OCO4)cc1OC (stereo not given)
5. O=C(NCCCCNCCCNC(=O)c1cc(-c2ccccc2)nc2ccccc12)c1cc(-c2ccccc2)nc2ccccc12
6. CC1=C2C(=O)C(C)(C)C=C2C(=O)[C@](C)(O)C12CC2

1. > 100 µM
2. > 100 µM
3. > 25 µM
4. 49.4 µM
5. 3.39 µM
6. > 1 µM

The following compounds each have a reported value; give each one's TGI.
1. COc1cc(C2SCC(=O)N2c2ccc(Cl)cc2)cc(I)c1O (stereo not given)
2. COc1cc(/C=C/C(=O)N[C@@H]2C(=O)N3[C@@H]2SC(C)(C)[C@@H]3C(=O)O)cc(OC)c1OC

["> 100 µM", "> 100 µM"]

The following compounds each have a reported value; give each one's TGI.
1. NCCCc1c(-c2ccccc2)nc(N)[nH]c1=O
2. CC1=C(C(=O)NCC(C)O)CC(C(=O)NCC(C)O)=C(C)N1 (stereo not given)
3. COC1(OC)C2(Cl)C(Cl)=C(Cl)C1(Cl)C1COCC12 (stereo not given)
4. Oc1cccc(Cn2c(-c3cccc(O)c3O)nc3ccccc32)c1O
5. CC(=O)NC1C(OCc2ccccc2)OC(COC(=O)CCCCCNc2ccc([N+](=O)[O-])c3[nH]c4ccc(O)cc4c(=O)c23)C(O)C1OC(C)C(=O)N[C@@H](C)C(=O)N[C@H](CCC(=O)OCc1ccccc1)C(N)=O (stereo not given in full)

1: > 100 µM; 2: > 100 µM; 3: > 100 µM; 4: 16.3 µM; 5: 4.33 µM

The following compounds each have a reported value; give each one's TGI.
1. COC(=O)c1ccc(CCc2cc(O)c(Br)cc2O)cc1
2. N=c1oc2ccc(Cl)cc2cc1C(=O)NCc1ccccc1
3. CC(C)NC(=O)OCc1c(COC(=O)NC(C)C)c(-c2ccc[n+](COC(=O)C3CC3)c2)n2c1CCC2
4. Cc1ccc2c(N/N=C\c3ccco3)cc(C)nc2n1
5. ClC1(c2ccccc2)c2ccc(Br)cc2-c2cc(Br)ccc21

["33.3 µM", "> 100 µM", "> 100 µM", "11.8 µM", "27.4 µM"]

---

System: TK-10 renal
assay-notes: NCI tumour cell line growth inhibition, 48 h
Field: TGI. Provide a value for each of the molecules that follow.
One number for each entry, in µM.

The following molecules each have a reported value; give each one's TGI.
1. CCn1cc(C(=O)N/N=C/c2cccc(F)c2)c(=O)c2cc(F)c(N3CCNC(C)C3)c(F)c21 (stereo not given)
2. CCOC(=O)c1c(C)[nH]c(/C=C2\N=C(c3ccc[nH]3)C=C2OC)c1C

3.18
1.75

---

Test system: CCRF-CEM leukemia
assay-notes: NCI tumour cell line growth inhibition, 48 h
Is TGI at least 30 µM? Then yes. If not, no.

Illustrative cases are given below, each with its answer.
molecule=CN(C)CCNC1=CC(=O)c2c(O)ccc(O)c2C1=O group=no
molecule="NC1=NC(c2ccccc2)CC(c2cc(Cl)cc(Br)c2O)=N1 (stereo not drawn)" group=yes
molecule=Nn1c(SCC(=O)NCc2ccccc2)nc2ccccc2c1=O group=yes
molecule=COc1ccc(-n2c3c(c4c(CN(C)C)c(O)ccc42)C(=O)c2ccccc2C3=O)cc1 group=no
molecule="COc1cc2ccnc3c2c(c1OC)CC1CC(O)C(OC)CC31 (stereo not drawn)" group=yes
molecule=CCCCNC(=O)Oc1ccc2c(=O)c3sc4c(=O)c5ccccc5c(=O)c4c3c(=O)c2c1 group=no

Quick check, TGI >= 30 µM? CC1OC(O[C@H]2/C=C/C=C/C=C/C=C/C=C/C=C/C=C/[C@H](C)[C@@H](O)[C@@H](C)[C@H](C)OC(=O)C[C@H](O)C[C@H](O)CC[C@@H](O)[C@H](O)C[C@H](O)C[C@]3(O)C[C@H](O)[C@@H](C(=O)O)[C@H](C2)O3)C(O)C(N)C1O (stereo partly drawn) yes

Another molecule to look at: `COc1cc(/C=C2\CN(S(=O)(=O)c3ccc(C)cc3)C/C(=C\c3cc(CN4CCCCC4)c(O)c(OC)c3)C2=O)cc(CN2CCCCC2)c1O` no

Another molecule to look at: `O=C1OC[C@@H]2Cc3c([nH]c4ccccc34)[C@@H](c3cc(O)c(O)c(O)c3)N12` yes

Another molecule to look at: `COc1cc(C)[nH]c(=O)c1CN1CCc2c(Cl)cc([C@H](OC)C3COC3)c(Cl)c2C1=O` yes

Another molecule to look at: COC1(OC)C2(Cl)C(Cl)=C(Cl)C1(Cl)C1COCC12 (stereo not drawn) yes

Another molecule to look at: CC(NC(=O)C(N)CC(=O)O)NC(=O)N1CCOCC1 (stereo not drawn) yes

Another molecule to look at: `COc1ccc(CCCC(=O)O)c(C)c1` yes

Another molecule to look at: `O=C1C(Cl)=C(Nc2cccc(O)c2)C(=O)N1c1cccc(Cl)c1` yes

---

Field: TGI. Provide a value for each of the compounds that follow.
System: HOP-92 NSCLC
assay-notes: NCI tumour cell line growth inhibition, 48 h
One number for each entry, in µM.

Worked examples follow.
compound="NC1=NC(c2ccccc2)CC(c2cc(Cl)cc(Br)c2O)=N1 (stereo not drawn)" metric_name=TGI quantitative_readout=38.2
compound=CC(=O)O[C@H]1C(=O)[C@@]2(C)[C@H]([C@H](OC(=O)c3ccccc3)[C@]3(O)C[C@H](OC(=O)[C@H](O)[C@@H](NC(=O)CC(C)C)c4ccccc4)C(C)=C1C3(C)C)[C@]1(OC(C)=O)CO[C@@H]1C[C@@H]2O metric_name=TGI quantitative_readout=9.85
compound=CNC(=O)c1cncc(/C=C/c2c(C)cccc2C)c1 metric_name=TGI quantitative_readout=22.9
compound=CCN(CC)CCSc1nc2c(c(=N)n1-c1ccccc1)c(=S)n(-c1ccccc1)c(=S)n2-c1ccccc1 metric_name=TGI quantitative_readout=2.88
compound=O=C(c1cc2c(C(F)(F)F)onc2c2ccccc12)C(F)(F)F metric_name=TGI quantitative_readout=4.99

The following compounds each have a reported value; give each one's TGI.
1. CN(C)CCNC(=O)c1ccc(NCCCN(C)CCCNc2ccc(C(=O)NCCN(C)C)c3[nH]c4ccc([N+](=O)[O-])cc4c(=O)c23)c2c(=O)c3cc([N+](=O)[O-])ccc3[nH]c12
2. ClC1(c2ccccc2)c2ccc(Br)cc2-c2cc(Br)ccc21

1. 0.933
2. 29.2

The following compounds each have a reported value; give each one's TGI.
1. CCn1cc(C(=O)N/N=C/c2cccc(F)c2)c(=O)c2cc(F)c(N3CCNC(C)C3)c(F)c21 (stereo not drawn)
2. CN(C)CCCN=c1cc2c(=O)n(CCCN(C)C)c(=O)c3c(NCCCN(C)C)cc4c(O)n(CCCN(C)C)c(=O)c1c4c3-2

1: 2.42; 2: 14.2

The reported measurements were obtained from PubChem BioAssay (NCI).
